experiment: Human HepG2 cell viability assay in 384 well format; format: toxicity, cell-based; set-up: dose 125 nL, time 70.5 hour; concentration not given beside the values; conditions: HepG2 cells, read-out: Inhibition
property.name: cytotoxicity at 70.5 h

compound=Cc1c(NC(=O)NCCO)cccc1OC1CCCC1 recorded_result=-8.09%
compound="Cc1nccn1-c1ccc(N2CCC(NC(C)CC(C)C)CC2)cc1 (stereo not given)" recorded_result=10.6%
compound=CC(C)c1nc(S(=O)(=O)N(C)c2ccc(F)cc2)c[nH]1 recorded_result=-7.45%
compound="O=S(=O)(C1CC1)N1CCOCC2(CN(c3ncccn3)CCO2)C1 (stereo not given)" recorded_result=-9.2%
compound=Oc1nc(N2CCOCC2)nc2c1CCN(Cc1cccc(F)c1)CC2 recorded_result=-5.57%
compound="Cc1cc(C2CCCN(C(=O)COc3ccc(F)cc3F)C2)n[nH]1 (stereo not given)" recorded_result=-4.95%
compound=CN(Cc1ccc(OC(F)F)cc1)C(=O)CS(=O)(=O)c1ccc(Cl)cc1 recorded_result=-9.26%
compound="O=S(=O)(c1ccc(C(F)(F)F)cc1)N1CCC(OCc2ccccn2)C1 (stereo not given)" recorded_result=1.24%
compound="CC(Cn1cccn1)NCc1csc(-c2ccsc2)n1 (stereo not given)" recorded_result=-12.1%
compound="COCCN1CCN(CC(C)(O)c2cccc(C(F)(F)F)c2)CC1 (stereo not given)" recorded_result=-12.6%
compound=OCCOc1ccc(NCc2cc(F)cc3cccnc23)cn1 recorded_result=-9.9%
compound=Cn1nccc1-c1ncc(-c2cc(C(=O)O)n(CC3CC3)c2)cn1 recorded_result=6.58%
compound="Cc1cc(C2CCCN(CCCS(=O)(=O)c3ccccc3)C2)n[nH]1 (stereo not given)" recorded_result=-14%
compound="Cc1cc(F)ccc1-n1cc(O)c(C(=O)NCC[S+](C)[O-])n1 (stereo not given)" recorded_result=8.16%
compound=CCc1nnc(N[C@H](C)c2cccc(OC)c2)o1 recorded_result=-20.2%
